B1: library; a variant is named by its letters at N, in order (parent)
chain: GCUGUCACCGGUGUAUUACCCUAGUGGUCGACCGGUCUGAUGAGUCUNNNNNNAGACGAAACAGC

# Variants of: B1
# METHOD DESCRIPTION: FACS-Seq fitted mean relative fluorescence mCherry/BFP without ligand (log10 relative fluorescence); ligand: hypoxanthine (xanthine aptamer); higher = higher reporter protein expression
# ASSAY CONTEXT: HEK293T, ligand present: no
Assign class by FACS-Seq fitted mean (log10): not lower than 0.4 means label 1; lower than 0.4 means label 0.

# check: FACS-Seq fitted mean (log10) of ACCUGA is greater than or equal to 0.4
label 0

Next variant: ACUGCA
label 1

Continue with GCGAUG
label 0

// next record UACGAG
label 0

Again, but for AGUGUG
label 0

Entry AGCGAG please
label 0

Follow-up entry: AAGACA
label 0

# repeat for GAGAUC
label 0

Repeat with CAGGAU
label 0

Do the same for GAACAC please
label 1

Query GUACGG next
label 0

Try this variant next: CAUGGG
label 0

Query GUGCGG next
label 0

Record: AACUUU
label 0

And for AAUAAG ?
label 0

Request: AGUCGG
label 0

Moving on to the next variant: GCGGCG
label 0

What do you have for AAAGCG ?
label 0

Would you kindly repeat that for ACUAAU ?
label 1

Another variant to look at: GUUACU
label 1

Queued: UAACGC
label 0

// same read-out, input: UAACCC
label 1

Try this variant too: UGUCUA
label 0

Another variant to check: UGCGUA
label 0

Entry GGUUUU please
label 0

Next up: GAUUGC
label 1

Another variant to check: ACACGA
label 0

Can you check CGUGAA next?
label 0

Now the same for CUCGAA
label 1

Another: GAAUAG
label 0

Further, for GACACG ?
label 0

Entry to check: UAUCCG
label 0

Let us now turn to ACACGU
label 1

What about this variant? CUACAA
label 0

Also check AGAAAU
label 1

Subsequent entry: ACUAGG
label 1

Next record, please: GGAUGG
label 0

And the next one, ACACGG ?
label 0

Cool, now AAUUAC
label 1

Ok, now CGAGAG
label 0

Can you handle AAUACA next?
label 0

Likewise for CGGAGU ?
label 0

Another variant to check: GCUCGG
label 0

Record: UCCCGU
label 1
